Here the recorded TGI is given for each entry.
System: SR leukemia
Assay: NCI tumour cell line growth inhibition, 48 h

Below are worked cases with known answers.
CN[C@H]1CN(c2ccc3c(=O)c(C(=O)O)cn(-c4nccs4)c3n2)C[C@@H]1OC; 0.777 µM
CNC(=O)C(C)NC(=O)C(Cc1ccccc1)NC(=O)c1ccccc1 (centres undefined); > 100 µM
CC(=O)Nc1ccc2c3c(cc(O)c2c1)N(C(=O)CCCC(=O)N1CC(CCl)c2c1cc(O)c1cc(NC(C)=O)ccc21)CC3CCl (centres undefined); < 0.01 µM
CCn1cc2c(=O)n3ncn(-c4ccc(Br)cc4)c3nc2n1; > 100 µM
C=CN(C(=O)N1CCN(c2cc3c(cc2F)c(=O)c(C(=O)O)cn3C2CC2)CC1)c1nc(-c2ccc(OC)cc2)cs1; > 100 µM

IN: Provide the reported TGI (system: SR leukemia) for N#Cc1ccc(C(O)C(F)(F)c2nc3ccccc3o2)cc1 (centres undefined)
OUT: > 100 µM

IN: Write down the reported TGI (system: SR leukemia) of C=C[C@@H](C)[C@]1(C(=O)OC)CCCC12OCCO2
OUT: > 100 µM

IN: Please look at CSC12c3cc(C)n(-c4ccc([N+](=O)[O-])cc4)c3CC(C)(C)CN1C(=O)C2Oc1ccccc1 (centres undefined) and tell me its recorded TGI on SR leukemia.
OUT: > 100 µM

IN: Provide the reported TGI (system: SR leukemia) for C=CSCCC(N)C(=O)O (centres undefined)
OUT: > 100 µM

IN: Give TGI only, for COc1ccccc1/C=C/c1ccnc2ccccc12 , using SR leukemia data.
OUT: 35.7 µM

IN: State TGI on SR leukemia. Entry: C=C(C)[C@H]1CC[C@@]2(C)C(C1)[C@H](C)CC[C@@H]2O (some centres undefined)
OUT: > 100 µM

IN: Fill: TGI (SR leukemia) for this molecule NCCSSCc1ccccc1CSSCCN
OUT: > 100 µM

IN: Name the value of TGI reported for c1csc(-c2nn3c(C45CC6CC(CC(C6)C4)C5)nnc3s2)c1 when tested on SR leukemia.
OUT: > 100 µM

IN: Look up and report measured TGI (SR leukemia) for the following molecule: CCc1nc(N)nc(N)c1-c1ccc(Cl)c([N+](=O)[O-])c1
OUT: > 26.5 µM

IN: Would you please give the reported TGI of CCOC(=O)C1(C#N)OC(=O)c2cnccc21 (centres undefined) with SR leukemia?
OUT: > 100 µM

IN: Fetch value of TGI on SR leukemia for O=C1Nc2c(ccc(Cl)c2Cl)/C1=C/c1cc(Br)c(O)c(Br)c1 .
OUT: > 39.3 µM

IN: Using SR leukemia as the test system, report measured TGI of COC(COC(N)=O)C1=C(N2CC2)C(=O)C(C)=C(N2CC2)C1=O (centres undefined) .
OUT: 2.19 µM

IN: State, for SR leukemia, measured TGI of the molecule listed here: CN=C1Nc2ccccc2C(=O)N2CSCC12 (centres undefined)
OUT: > 100 µM

IN: Under SR leukemia, report TGI for C=C(Cl)C(Cl)(CBr)CCC(Br)C(C)(C)Br (centres undefined)
OUT: 32.9 µM

IN: // fetch TGI for Nc1nc(Cl)cc(NCC2(O)CCC2)n1 ; system: SR leukemia
OUT: > 100 µM

IN: Under SR leukemia, report TGI for COC(=O)c1c([N+](=O)[O-])ncn1[C@H]1OC[C@@H](OC(C)=O)[C@@H](OC(C)=O)[C@@H]1OC(C)=O
OUT: > 100 µM
